target: SHP2 (Homo sapiens (Human)); experiment: SHP2 allosteric inhibition experiment (DiFMUP fluorescence); conditions: 0.5 nM SHP2 activated with 0.5 μM peptide IRS1_pY1172(dPEG8)pY1222; substrate DiFMUP; 25° C.; read-out: IC50 values of compounds inhibiting SHP2
pIC50: −log10 of the molar value.
Parameter measured: pIC50

Guide cases for pIC50, answers given:
INSERT INTO results (record_smiles, measured_value) VALUES
  ('Cc1csc(-c2cccc(Sc3cnc(N4CCC5(CC4)CO[C@@H](C)[C@H]5N)cn3)c2Cl)n1', 8.10),
  ('C[C@@H]1OCC2(CCN(c3cnc(Sc4cccc(-c5cnccn5)c4Cl)cn3)CC2)[C@@H]1N', 8.88),
  ('C[C@@H]1OCC2(CCN(c3cnc(Sc4cccc(-c5cn6ccnc6cn5)c4Cl)cn3)CC2)[C@@H]1N', 8.20),
  ('C[C@@H]1OCC2(CCN(c3cnc(Sc4ccnc(-c5cnccn5)c4Cl)cn3)CC2)[C@@H]1N', 7.38),
  ('C[C@@H]1OCC2(CCN(c3cnc(Sc4cccc(NC(=O)c5cccc(F)c5Cl)c4Cl)cn3)CC2)[C@@H]1N', 8.29);

A = Cc1ncsc1-c1cccc(Sc2cnc(N3CCC4(CC3)CO[C@@H](C)[C@H]4N)cn2)c1Cl
B = C[C@@H]1OCC2(CCN(c3cnc(Sc4cccc(N5CCCC5=O)c4Cl)cn3)CC2)[C@@H]1N
Exercise: # return whichever of A and B has the smaller pIC50 Select an item and report its label.
Solution: B

A = C[C@@H]1OCC2(CCN(c3cnc(Sc4cccc(NC(=O)c5cc6n(n5)CCCC6)c4Cl)cn3)CC2)[C@@H]1N
B = CCn1ccc(-c2cccc(Sc3cnc(N4CCC5(CC4)CO[C@@H](C)[C@H]5N)cn3)c2Cl)n1
Exercise: # return whichever of A and B has the smaller pIC50 Select an item and report its label.
Solution: A
(A: 8.19, B: 8.76)

----------
target: SHP2 (Homo sapiens (Human), UniProt Q06124); assay: SHP2 allosteric inhibition experiment (DiFMUP fluorescence); conditions: 0.5 nM SHP2 activated with 0.5 μM peptide IRS1_pY1172(dPEG8)pY1222; substrate DiFMUP; 25° C.; read-out: IC50 values of compounds inhibiting SHP2
pIC50: −log10 of the molar value.
Parameter measured: pIC50

INSERT INTO results (record_smiles, target_entity, measured_value) VALUES
  ('C[C@@H]1OCC2(CCN(c3cnc(Sc4cccc(-c5nccs5)c4Cl)cn3)CC2)[C@@H]1N', 'SHP2 (Homo sapiens (Human), UniProt Q06124)', 8.27),
  ('C[C@@H]1OCC2(CCN(c3cnc(Sc4cccc(Nc5cnn(C)c5)c4Cl)cn3)CC2)[C@@H]1N', 'SHP2 (Homo sapiens (Human), UniProt Q06124)', 8.14),
  ('C[C@@H]1OCC2(CCN(c3cnc(Sc4cccc(-c5cccs5)c4Cl)cn3)CC2)[C@@H]1N', 'SHP2 (Homo sapiens (Human), UniProt Q06124)', 8.03),
  ('C[C@@H]1OCC2(CCN(c3cnc(Sc4cccc(-c5nc(C#N)cs5)c4Cl)cn3)CC2)[C@@H]1N', 'SHP2 (Homo sapiens (Human), UniProt Q06124)', 8.36),
  ('C[C@@H]1OCC2(CCN(c3cnc(Sc4cccc(NC(=O)c5cc(Cl)ccc5O)c4Cl)cn3)CC2)[C@@H]1N', 'SHP2 (Homo sapiens (Human), UniProt Q06124)', 8.03),
  ('C[C@@H]1OCC2(CCN(c3cnc(Sc4cccc(-c5ccc(C#N)o5)c4Cl)cn3)CC2)[C@@H]1N', 'SHP2 (Homo sapiens (Human), UniProt Q06124)', 8.22);
